Settings: 313.15 K, Pendant drop shape
Numbers after ± are expanded uncertainties.
outcomeMeasure: surface tension liquid-gas

Worked cases, answers included:
>>> experimentalvalue("CCCCCCCC[n+]1ccn(C)c1.COS(=O)(=O)[O-] [1-methyl-3-octylimidazolium methyl sulfate]")
"30.03 ± 0.43 mN/m"
>>> experimentalvalue("CCCCCCCC[n+]1ccn(C)c1.CCOS(=O)(=O)[O-] [1-methyl-3-octylimidazolium ethyl sulfate]")
"27.94 ± 0.41 mN/m"
>>> experimentalvalue("CCCCCCn1cc[n+](C)c1.CCOS(=O)(=O)[O-] [1-hexyl-3-methylimidazolium ethyl sulfate]")
"29.63 ± 0.43 mN/m"

We next turn to a different compound, shown below.
Exam item: Which measured surface tension liquid-gas value corresponds to CCCCn1cc[n+](C)c1.CCOS(=O)(=O)[O-] [1-butyl-3-methyl-1H-imidazolium ethyl sulfate] ?
Marked response: 33.91 ± 0.48 mN/m

----------
Conditions: 298.15 K, Pendant drop shape
Recorded surface tension liquid-gas by entry
The reply should be a number in mN/m, with the unit left off.

Exam item: Item CCCCCCCC[n+]1ccn(C)c1.CCOS(=O)(=O)[O-] [1-methyl-3-octylimidazolium ethyl sulfate] has what recorded surface tension liquid-gas?
Marked response: 28.67

Exam item: Would you mind telling me what surface tension liquid-gas value was observed for COS(=O)(=O)[O-].Cn1cc[n+](C)c1 [1,3-dimethylimidazolium methylsulfate] ?
Marked response: 59.42

Exam item: I am curious: what surface tension liquid-gas value has been reported for CCCCCCn1cc[n+](C)c1.CCOS(=O)(=O)[O-] [1-hexyl-3-methylimidazolium ethyl sulfate] ?
Marked response: 31.77

Exam item: Which surface tension liquid-gas is listed for CCCCn1cc[n+](C)c1.COS(=O)(=O)[O-] [1-butyl-3-methylimidazolium methyl sulfate] ?
Marked response: 43.3

Exam item: Quick one: surface tension liquid-gas of CCCCCCn1cc[n+](C)c1.COS(=O)(=O)[O-] [1-hexyl-3-methylimidazolium methyl sulfate] ?
Marked response: 33.59

Exam item: Can you look up the measured surface tension liquid-gas of CCCCn1cc[n+](C)c1.CCOS(=O)(=O)[O-] [1-butyl-3-methyl-1H-imidazolium ethyl sulfate] for me?
Marked response: 36.38

Exam item: Field request: surface tension liquid-gas | item: CCCCCCCC[n+]1ccn(C)c1.COS(=O)(=O)[O-] [1-methyl-3-octylimidazolium methyl sulfate]
Marked response: 30.41
